- tested_on: T1, human LIV-1 (human, UniProt Q13433 29-755)
- T1 construct: whole, on cells; also called H-LIV1
- T1 sequence (looked up): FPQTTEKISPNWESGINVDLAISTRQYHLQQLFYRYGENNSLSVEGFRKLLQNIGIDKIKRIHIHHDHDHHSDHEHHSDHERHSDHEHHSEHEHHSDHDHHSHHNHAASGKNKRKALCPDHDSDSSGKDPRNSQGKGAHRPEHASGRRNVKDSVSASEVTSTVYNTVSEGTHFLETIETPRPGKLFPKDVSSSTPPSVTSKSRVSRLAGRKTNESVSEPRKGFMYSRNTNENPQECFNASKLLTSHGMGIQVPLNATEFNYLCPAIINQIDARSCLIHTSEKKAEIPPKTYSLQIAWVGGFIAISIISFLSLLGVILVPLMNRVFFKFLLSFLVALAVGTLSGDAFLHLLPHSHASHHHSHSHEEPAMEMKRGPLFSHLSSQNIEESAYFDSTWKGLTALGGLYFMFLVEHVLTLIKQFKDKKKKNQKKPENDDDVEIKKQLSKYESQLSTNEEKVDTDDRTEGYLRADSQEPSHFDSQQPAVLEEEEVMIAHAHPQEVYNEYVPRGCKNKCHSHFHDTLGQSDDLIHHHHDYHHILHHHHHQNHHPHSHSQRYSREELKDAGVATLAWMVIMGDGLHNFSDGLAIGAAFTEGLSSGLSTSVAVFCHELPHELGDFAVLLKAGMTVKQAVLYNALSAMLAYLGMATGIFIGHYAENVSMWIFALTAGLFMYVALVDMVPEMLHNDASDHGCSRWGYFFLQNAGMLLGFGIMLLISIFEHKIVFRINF
- experiment_description: FACS, HEK293/H_LIV-1 cells
pEC50: −log10 of the molar value.
Reported pEC50 values for a set of binders

{"binder": "5D6B10.Z12 (antibody, V domains shown) VH: QVQLQESGPGLVKPSGTLSLTCAVSGFSLTTYGIHWVRQSPGKGLEWLGVIWTGGTTDYNAAFISRLTISKDKSKNQVSLKLSSVTAADTAVYYCARGPSSYWGQGTLVTVSS VL: DIVMTQSPATLSVSPGERVTVSCKASQNVDTNVVWYQQKPGQSPRALIHSASYRYSGVPDRFSGSGSGTDFTLTISSVQSEDFAVYFCQQYNNYPWTFGGGTKLEIK", "pEC50": 9.52}
{"binder": "124H4D11.p2.z7 (antibody, V domains shown) VH: QVPLVQSGAEVVKPGASVKVSCKASGFNIKDYYMHWVRQAPGQGLEWIGWIDPENDDTEYDPKFQGRATMTADTSTSTAYMELSSLRSEDTAVYYCNARYYAFDYWGQGTTVTVSS VL: DVLMTQSPSSLSASVGDRVTITCRSSQSIVHSNANTYLEWYLQKPGKSPKLLIYKVSNRFSGVPDRFSGSGSGTEFTLTISSVQPEDFAVYYCFQGSQVPPTFGQGTRLEIK", "pEC50": 7.43}
{"binder": "5D6B10.Z1 (antibody, V domains shown) VH: QVQLVESGGGVVQPGRSLRLSCAVSGFSLTTYGIHWVRQAPGKGLEWLAVIWTGGTTDYNAAFISRFTISKDNSKSTLYLQMNSLRAEDTAVYYCARGPSSYWGQGTLVTVSS VL: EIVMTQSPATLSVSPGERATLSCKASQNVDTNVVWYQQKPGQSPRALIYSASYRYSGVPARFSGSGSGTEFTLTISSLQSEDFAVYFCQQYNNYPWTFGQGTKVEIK", "pEC50": 9.80}

Data provenance is patent US20240325555A1.
